Test: chemical genetic growth profiling, strain panel (AID 1159580);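 also: tested at 20 µM; growth read once vehicle control cultures reached saturation at 30 °C; 1 = growth at the plate median or of vehicle wells; lower values mean less growth of the strain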
Conditions: S. cerevisiae deletion strains, growth OD, locus YJL166W, strain qcr8
Hit rate of the full screen: of about 5,500 compounds, about 2,000 (36%) were called active. Inconclusive results (about 18%) are left out. Rule as the data show it: active = normalized growth mostly below about 0.91 (no sharp cut-off); inconclusive = no clear call, values can overlap the other calls; inactive = mostly above about 0.92. Some of the results follow.
Pick from True for active, False for inactive when you respond.

Reference set, count: 4
smiles text: O=C(CCCN1CC=C(n2c(=O)[nH]c3ccccc32)CC1)c1ccc(F)cc1
group label: False
--
smiles text: O=C1c2ccccc2C(=O)c2c(O)c(O)cc(O)c21
group label: True
--
smiles text: c1ccc2c(c1)[nH]c1cnccc12
group label: False
--
smiles text: COc1ccc(Cc2nccc3cc(OC)c(OC)cc23)cc1OC
group label: False

Let us examine a further case.
Hey, what did the test say about `Cc1nccc2c1[nH]c1ccccc12` ?
False

###

Assay: chemical genetic growth profiling, strain panel (AID 1159580);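 also: tested at 20 µM; growth read once vehicle control cultures reached saturation at 30 °C; 1 = growth at the plate median or of vehicle wells; lower values mean less growth of the strain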
Conditions: S. cerevisiae deletion strains, growth OD, locus YBR171W, strain sec66, active compounds read low
In all, about 5,500 compounds went through this assay and about 2,000 (36%) were called active. Another 18% or so got no clear call; they are omitted. The list shows a part of the results.
endpoint name: normalized growth
# output: bare number, no unit

Illustrative cases are given below, each with its answer.
compound: Cc1cc(C)nc(NS(=O)(=O)c2ccc(N)cc2)n1
measured: 0.989
//
compound: CCS(=O)(=O)CCn1c([N+](=O)[O-])cnc1C
measured: 1
//
compound: O=C1OC(=O)C2C3CCC(O3)C12 (configuration not stated)
measured: 1.02
//
compound: N#C/C(=C\c1ccc(O)cc1)C(=O)O
measured: 0.991

Recorded normalized growth for `FC(F)(F)COCC(F)(F)F` , please?
1.01

Recorded normalized growth for CC(=O)O[C@@H]1CC2C(C)(C)[C@H](O)C[C@H](O)[C@]2(C)C2CC[C@@]3(C)C(=CC(=O)O[C@H]3c3ccoc3)[C@@]21C (some centres not stated) , please?
1.01

Recorded normalized growth for CC(C(=O)O)c1ccc(N2Cc3ccccc3C2=O)cc1 (configuration not stated) , please?
0.971

Recorded normalized growth for `NCCS` , please?
0.998

Recorded normalized growth for C[N+]1(C)CCc2cc3c(cc2[C@H]1C1OC(=O)c2c1ccc1c2OCO1)OCO3 (some centres not stated) , please?
1

Recorded normalized growth for CN1Cc2c(N)cccc2C(c2ccccc2)C1 (configuration not stated) , please?
1.02

Recorded normalized growth for CC(=O)OC1CCC23C(=O)OC45CCC(C6=CC(=O)OC6)C4(C)CCC2C5CCC3(O)C1 (configuration not stated) , please?
0.953

Recorded normalized growth for `CN(C)c1nc(N(C)C)nc(N(C)C)n1` , please?
0.976

###

Test: chemical genetic growth profiling, strain panel (AID 1159580);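 also: tested at 20 µM; growth read once vehicle control cultures reached saturation at 30 °C; 1 = growth at the plate median or of vehicle wells; lower values mean less growth of the strain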
Conditions: S. cerevisiae deletion strains, growth OD, locus YJR066W, strain TOR1
The whole screen tested about 5,500 compounds, of which about 2,000 (36%) were called active. Inconclusive results (about 18%) are left out. No stated cut-off is given here; in the data, active means normalized growth mostly below about 0.91 (no sharp cut-off); inconclusive means no clear call, values can overlap the other calls; inactive means mostly above about 0.92. Some of the results follow.
Pick from 1 for active, -1 for inactive when you respond.

compound: O=c1[nH]c2ccccc2n1C1CCN(CCCC(c2ccc(F)cc2)c2ccc(F)cc2)CC1
group label: -1
//
compound: COc1cc(OC)cc(/C(N)=N\O)c1
group label: -1

Hey, what did the test say about `Cc1oc(-c2ccc(Cl)cc2)cc1C(=O)N1CCN(c2ccc(C(F)(F)F)cn2)CC1` ?
-1

Hey, what did the test say about `COc1ccc(Cc2nccc3cc(OC)c(OC)cc23)cc1OC` ?
-1

Hey, what did the test say about `COc1cc(O)c(C(=O)O)c(O)c1` ?
-1

Hey, what did the test say about CC1CCc2c(sc3ncnc(Sc4ccccc4)c23)C1 (centres undefined) ?
-1

Hey, what did the test say about `O=c1ccc2cc(O[C@@H]3O[C@H](CO)[C@@H](O)[C@H](O)[C@H]3O)c(O)cc2o1` ?
-1
